pIC50: −log10 of the molar value.
Compiled from multiple publications: pIC50 readings for Prostaglandin E2 receptor EP3 subtype (Homo sapiens, UniProt P43115).

The measured pIC50 that COc1cccc(CN2C(=O)CC3(C)CCCC(C=CC(=O)NS(=O)(=O)c4cc(F)cc(F)c4)=C23)c1 (stereo not shown) showed for Prostaglandin E2 receptor EP3 subtype (Homo sapiens, UniProt P43115) is > 6.00

// pIC50 (Prostaglandin E2 receptor EP3 subtype (Homo sapiens, UniProt P43115)) for "O=Cc1cn(Cc2ccc(Cl)cc2Cl)c2c(C=CC(=O)NS(=O)(=O)c3cccs3)cccc12" = > 6.00

Form field pIC50 for item "Cn1cc(Cc2ccc3ccccc3c2)c2c(-c3ccc(NS(=O)(=O)C(F)(F)F)cc3)cccc21" on Prostaglandin E2 receptor EP3 subtype (Homo sapiens, UniProt P43115): 5.00 to 6.00

Assay Prostaglandin E2 receptor EP3 subtype (Homo sapiens, UniProt P43115), sample "COc1cc(Cn2cc(C)c3cc(F)cc(C=CC(=O)NS(=O)(=O)c4cc(F)c(F)cc4F)c32)cc(OC)c1" , pIC50 read: > 6.00

So the reported pIC50 for "Cn1cc(/C=C/C(=O)O)c2c(Oc3ccc(F)c(Cl)c3)cccc21" , on Prostaglandin E2 receptor EP3 subtype (Homo sapiens, UniProt P43115), turned out to be 5.00 to 6.00

The recorded pIC50 with Prostaglandin E2 receptor EP3 subtype (Homo sapiens, UniProt P43115) for CC1C(=O)N(Cc2ccc(Cl)cc2Cl)c2c(C=CC(=O)NS(=O)(=O)c3cccs3)cccc21 (stereo not shown) was > 6.00

Prostaglandin E2 receptor EP3 subtype (Homo sapiens, UniProt P43115) assay, compound "Cc1cn(Cc2ccc3ccccc3n2)c2c(/C=C/C(=O)NS(=O)(=O)c3cccs3)cccc12" , recorded pIC50 = > 6.00
